Test: clinical
Settings: human, in vivo, po, 25 mg

Smiles Representation	AUC / ng·h/mL
Cn1c(=O)n([C@@H]2CCC(=O)NC2=O)c2cccc(C#CCOC3CCN(C[C@H]4CC[C@H](n5cc(NC(=O)c6cnn7ccc(N8C[C@H]9C[C@@H]8CO9)nc67)c(C(F)F)n5)CC4)CC3)c21	112

====

Assay: Solubility
Assay type: physicochemical
Settings: FaSSIF, pH 6.5, fassif; read-out: solubility in bio-relevant fluid (FaSSIF)

Compound	solubility
Cn1c(=O)n([C@@H]2CCC(=O)NC2=O)c2cccc(C#CCOC3CCN(C[C@H]4CC[C@H](n5cc(NC(=O)c6cnn7ccc(N8C[C@H]9C[C@@H]8CO9)nc67)c(C(F)F)n5)CC4)CC3)c21 [Compound A]	< 12 mg/mL

Where do these numbers come from? They come from patent US20260207614A1.
